Biological target: Cellular tumor antigen p53 (Homo sapiens) (UniProt P04637)
Sequence (P04637 whole entry, looked up): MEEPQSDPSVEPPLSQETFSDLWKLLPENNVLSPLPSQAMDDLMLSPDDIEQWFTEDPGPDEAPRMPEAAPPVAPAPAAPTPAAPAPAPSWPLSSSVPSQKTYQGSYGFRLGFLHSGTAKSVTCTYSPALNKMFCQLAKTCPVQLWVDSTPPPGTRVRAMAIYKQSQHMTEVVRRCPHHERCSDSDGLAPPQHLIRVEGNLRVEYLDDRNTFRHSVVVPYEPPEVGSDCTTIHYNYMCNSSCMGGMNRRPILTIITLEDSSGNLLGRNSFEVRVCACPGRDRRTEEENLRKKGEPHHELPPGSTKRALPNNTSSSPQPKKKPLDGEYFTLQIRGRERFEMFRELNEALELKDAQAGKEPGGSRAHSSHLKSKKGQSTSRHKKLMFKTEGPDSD
Assay: ATG_p53_CIS: Attagene CIS-FACTORIAL HepG2 Assay for human p53 Transcription Factor (AID 2282994)
Settings: HepG2 p53 cis-element reporter, Attagene mRNA; actives raise or lower the signal
The source made the active and inactive calls. The calls were made as follows: active = hit-call score of the fitted dose curve at least 0.9, where 1 is the maximum; inactive = score below 0.9.
Parameter call: string, one of TRUE = active, FALSE = inactive

Prompt: Per the assay record, what outcome was assigned to CCCC(CC)c1ccccc1 (stereo not given) ?
Response: FALSE

Prompt: Per the assay record, what outcome was assigned to "CCCCCCCCCCCC(C)=O" ?
Response: TRUE

Prompt: Per the assay record, what outcome was assigned to "COc1ccc(C(=O)/C(Br)=C\C(=O)O)cc1" ?
Response: FALSE

Prompt: Per the assay record, what outcome was assigned to "C=CC(=O)OCCCCCCCCCC" ?
Response: FALSE

Prompt: Per the assay record, what outcome was assigned to "Oc1ccc(/C=C/c2cc(O)cc(O)c2)cc1" ?
Response: FALSE

Prompt: Per the assay record, what outcome was assigned to "CC(C)(C)C1CCC(=O)CC1" ?
Response: FALSE

Prompt: Per the assay record, what outcome was assigned to "CC(C)(C)NC(=O)[C@H]1CC[C@H]2[C@@H]3CC[C@H]4NC(=O)C=C[C@]4(C)[C@H]3CC[C@]12C" ?
Response: TRUE

Prompt: Per the assay record, what outcome was assigned to CCC1COC(=O)O1 (stereo not given) ?
Response: FALSE

Prompt: Per the assay record, what outcome was assigned to "CCN(CC)c1cccc(C)c1" ?
Response: FALSE

Prompt: Per the assay record, what outcome was assigned to "CCCCCCCCCCCCc1ccc(O)cc1" ?
Response: FALSE

Prompt: Per the assay record, what outcome was assigned to "C=C(C)C(=O)OCCCCCCCCCCCC" ?
Response: FALSE

Prompt: Per the assay record, what outcome was assigned to CC1C(C)(C)C2=C(C(=O)CCC2)C1(C)C (stereo not given) ?
Response: FALSE

Prompt: Per the assay record, what outcome was assigned to "Oc1c(Cl)cc(Cl)c(Cl)c1Cl" ?
Response: FALSE

Prompt: Per the assay record, what outcome was assigned to "CC(=O)OCC=C(C)C" ?
Response: FALSE

Prompt: Per the assay record, what outcome was assigned to "Cc1cc(=O)[nH]c(=O)[nH]1" ?
Response: FALSE

###

Read-out: Plasminogen activator inhibitor-1 (PAI1), SERPINE1 (gene 5054)
Assay: BSK_hDFCGF_PAI1: BioMAP Diversity Plus: hDFCGF Assay for Plasminogen activator inhibitor-1 (PAI1) Biomarker Activity (AID 2283066)
Settings: primary human foreskin fibroblasts; actives raise or lower the signal
Activity calls are given as the source filed them. The calls were made as follows: active = hit-call score of the fitted dose curve at least 0.9, where 1 is the maximum; inactive = score below 0.9.
OBSERVED_PROPERTY: AC50

// known answers, use as guide
| COMPOUND | OBSERVED_PROPERTY | RESULT |
| --- | --- | --- |
| CCCCCCOC(=O)CCCCC(=O)OCCCCCC | AC50 | inactive |
| c1ccc2sc(SSN3CCOCC3)nc2c1 | AC50 | 4.82 µM (active) |
| O=C(Cl)c1c(Cl)c(Cl)c(C(=O)Cl)c(Cl)c1Cl | AC50 | 0.016 µM (active) |
| O=C1CCCCCCCCCCC1 | AC50 | inactive |
| Nc1nc(N)nc(-c2ccccc2)n1 | AC50 | inactive |

Prompt: Return AC50 for the following compound: "Cc1c(O)cccc1O"
Response: inactive

Prompt: Return AC50 for the following compound: CCC1(C)C(=O)N(Cl)C(=O)N1Cl (stereo unspecified)
Response: inactive

Prompt: Return AC50 for the following compound: "C=C(C)C(=O)OCCCCCCCCCCCC"
Response: inactive

Prompt: Return AC50 for the following compound: C=CC(=O)OCC(C)OCC(C)OCC(C)OC(=O)C=C (stereo unspecified)
Response: 6.86 µM (active)

Prompt: Return AC50 for the following compound: "COC(OC)(C(=O)c1ccccc1)c1ccccc1"
Response: inactive
